Test: protease stability score; higher = more stable; yeast display proteolysis, trypsin and chymotrypsin;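 note: log10 excess protease needed over predicted unfolded state with 0 meaning unfolded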
PROPERTY LABEL: protease stability score
One number for each entry.

The cases that follow already have their protease stability score on record.
{"ORDERED RESIDUES": "KEETVETLWKQMVEAVQKNNEEQLKKLGKDDVKVEYGGKKYEGTEQMATQLKKFMDLGAKFELKRYKVEGNHVEADIQVHVGGKTVHVTVRVEYDGGKLKKVQVHVSEEAEEAYKKG", "protease stability score": 1.24}
{"ORDERED RESIDUES": "DHEAKDVFEELLRRMKSGDEDEMKKLVDKNVRYTVGDKTLHGQEEIARHWYEQVKDMRIDIKVKDIKVHNGRVDVKFTFRHEHNGNPDSDKRRVNVEARNGKMQAVDDQKDS", "protease stability score": 0.148}

Q: Let me know recorded protease stability score for `DDELKRIVHQLMEALKHGDNDQWRKNVDPNVSVKIGDKELHGREEFARQIQRIKRELHLEIDIHDVKVKNGRADLDMTETRSENGQPETNRLRISYVIDNGKFKSVTLNIKQ` , thanks.
Ans: 0.222

====

Exercise: for every item that follows, state its recorded protease stability score.
Experiment: protease stability score; higher = more stable; yeast display proteolysis, trypsin and chymotrypsin;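 note: log10 excess protease needed over predicted unfolded state with 0 meaning unfolded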
One number for each entry.

The cases that follow already have their protease stability score on record.
{"ORDERED RESIDUES": "DDENNKILEEYLKAEQTNDPDRAVELMRDDVRMQVGDHRVHGREEVRKRIHQIKDTMRVQIDDLRVTVKGESVVANLDAQVRINGQPVRFRASVRADFHNGKIVHHRVHISEEQQERLKK", "protease stability score": 0.272}
{"ORDERED RESIDUES": "DEEKVVKVLKQALEAVQKGNQERVRKLGKPDVEVEAVNIREKGPEALRKAAQYVQKLGDKFEYKEEREEGDKVTTKVDVTRGGQTVTYQVDVVAEGGKVKEWVVNFSDTFAERVKKS", "protease stability score": -0.268}
{"ORDERED RESIDUES": "DEEALHLATQLYTNWRNNNPEEVVKLLDENARINVGDFNVTGRNNVRSTLEHLNREMHFEMRISSVDDHNGRAHLTVEARKNINGQPRNVSMKMEVQFHNGKIQQIVAHMPEEDIRTLQS", "protease stability score": 0.811}
{"ORDERED RESIDUES": "DHSDAEQVHRAIEENNFDELVDLADENVSVTIGDYTLHGREDFKHYQEVLKRQVDNVEFKTIDIQGDKIDRTVEATVNGRRYVARIVVKVKNGKIKSQKVHATDEKQNEQLRENLK", "protease stability score": -0.043}
{"ORDERED RESIDUES": "DEEEQKKRAKKQADAMRQGDTDELVKMLRDDVRVKVGDKEVHGREDLKKWAREIKKEVDHIQIRQVQVHNGRIDFHIVVNHNGKNKEVVLVVRVRNGQATDFKLTRK", "protease stability score": 0.051}
{"ORDERED RESIDUES": "DEEVAKKMMEAWMKALQNGNDEQMKKLYDPTVRWEDGNTEKQGLEVVVKLVQTVKKKGIEFQVRKAKVKGNQVEVHYDMKVGDDTVTFTVQFRAQGGRIQEVRVEISEEARKAVKKG", "protease stability score": 1.22}
{"ORDERED RESIDUES": "DEELLKIAKQFFEAEQNGDEDELKEQMDPNANLEYGDRTVHGRENIARWVSRVLREARIDFKEISVQDHNGRAKIHVRFVIDVNGRPNRMTRIVVVEQHNGRIKYLNIRMSEEQLKKLKE", "protease stability score": 0.132}
{"ORDERED RESIDUES": "DDTDQAEKMMEKLKDAFDTGDEDQVLKLADKDVKVDVGDKSYHGKEEYLDLFRHWLKKVDHLRLEVKHVNQNGDEISVTAKLVLDNNGETTDHTLHLVARSVNGDVVLQSMNNG", "protease stability score": 1.16}
{"ORDERED RESIDUES": "DEDNHRKAKKLIDAENTGDPTQVRKLADPNVHVEYGDEHVHGRDEIANELSKKAKEIRFRVDRLSFSVHNGTFSATQRMKENDNGRPEEFRVERSMELHNGKFVSIVQKKKS", "protease stability score": -0.071}
{"ORDERED RESIDUES": "DEEELERQAQELVDAWQTNDESKIRHLVDENARVQVGDTTWKGREKAEEQVQEFKKQVDRLRVISVRVHGENIVVHVEIVHNGKHFSLTIVIEMHNGKVKHISVDPKAVEIATK", "protease stability score": 0.497}

Q: Let me know recorded protease stability score for `DEEAREILRRFFTALNTNDEDQLVELVDKDVKIQVGDKEIHGREELKEHQVESYRRSRVDFRVTDIKASGDKVTAKIVVSRESDGQPRKTTQRMEFRFENGHMKHVHEDSDG` , thanks.
Ans: 0.064

====

Assay: protease stability score; higher = more stable; yeast display proteolysis, trypsin and chymotrypsin;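 note: log10 excess protease needed over predicted unfolded state with 0 meaning unfolded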
Please enter 1.0 where protease stability score is greater than or equal to 0.07, and 0.0 where it is lower.

Field: example entries. Status: answers known.
{"ORDERED RESIDUES": "DEHSDAKRVLEELSKAMENGDEQRVEDQLDENVRINVGENHYHGREHARLWFKQIVDHVDHVRDSMEDYRNQGENFVYVMSVVYQSNGQEKSIRIVYVMKNHNGTVRMVNVHEG", "CLASS ASSIGNMENT": 1.0}
{"ORDERED RESIDUES": "DEDAVKSASNAAQHGDFVRMAEEMRDNPEARYGDKDVRGREEVIRVVRILMEQVDSVKVKRVRVHGEKVTADLKFRVNGREFHANAVVVMDNGRFVKLVLHFTDSDFKHELHKRLE", "CLASS ASSIGNMENT": 1.0}
{"ORDERED RESIDUES": "DEKDNKTYADKVAEMLKHNDPRTARELVDPNAKVQVGDSEVHGREQIENLIKTWNEQVDHVEIKKYRVEGDKVEITFVAESNGKRTHFKVVLKVRNGRATHMTIKRK", "CLASS ASSIGNMENT": 1.0}
{"ORDERED RESIDUES": "DEKRYTEIAEKVFKYARNGNEEEMRKDGMPDLKYKYIDKEYEGEDAMRFVVELVKKIGAEDRQEKQEVKGNTAEAVFVYHNGDETVTTKAQVHYEGDKVKEVRVELTDEVKKVIKKG", "CLASS ASSIGNMENT": 1.0}

Next sequence, please.
Q: Does `DEDDVDRVRNLIHALNKGNPDDVNNQADENVRFVIGDKTFHGKETLRTRIEEQKSHSRYQVDSVHAEARNGQVEVHVNMTMTENGQPRKNTYEIQARVHNGRVKDFRMTESR` have a reported protease stability score of at least 0.07?
Ans: 0.0

====

Assay: protease stability score; higher = more stable; yeast display proteolysis, trypsin and chymotrypsin;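 note: log10 excess protease needed over predicted unfolded state with 0 meaning unfolded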
Please use the following protease stability score ranges when assigning a class: bucket A = under 0.1, bucket B = from 0.1 up to 1, bucket C = 1 and over

Field: example entries. Status: answers known.
{"ORDERED RESIDUES": "DEDDQLRKLLEEIVDALDRGNESELRNLMDKDVRVDVGDKTITGRENAAEFLIRLANEADEIDINITDLKVDNGNISLRFQLHLHHNGRNVTRQVTIVIDRKGDELKVKYIRMS", "CLASS ASSIGNMENT": "bucket A"}
{"ORDERED RESIDUES": "DEHIAKDLHRLAETGNWQELVEQADKDAKAKVGDKTYHGREDLQTLNRQWNEHVDHENLERVTLNPDHLVILFKMQVNGKDFAANVRIRRHNGRVEHIQVDARDDEQKKILHELLS", "CLASS ASSIGNMENT": "bucket B"}

Q: In plain terms, what class is `DEKVQDLVQKFVKWLAQGDHKKLADLLDPNARLHIGEFNVHGREQLREAVTRLQTRMHLSVNRVDASASNGKIKASAKFTVKHNGQPDKKHLNFSAVARGEKVKHMEASDDQ` ?
Ans: bucket A

Q: In plain terms, what class is `DEHAMERIDDFFQALRNGDPKNLKEQIDPNVSLHYGDKEVTGKDRAAKEMAQIFRHIRLEFDIKSVSAHNGRVTVNAEVVDEENGRPHSRRVQNNAVWHNGVIQSFHVKETK` ?
Ans: bucket A

Q: In plain terms, what class is `DEEQARRFREFMEVVRQGDEEKIKRYVDPNARVEVGEETLHGREDIAEWWQKVVRQIRVDITITKMSVSNGKLEIHARAQYEHNGTPEDNRQVIVIQWHNGVAKTIRMEKDG` ?
Ans: bucket B

Q: In plain terms, what class is `DDRDLKRMADVLKTGDPDKLNENADKDAQVHVGNKRVHGREQFHEYQRRLREQIDHLHVKHIEITENKARIDYEFHVNGQKFSFTLTFQAHDGKLKRMSATFTSEEEEKRWDEIVD` ?
Ans: bucket B

Q: In plain terms, what class is `DEEEVERVAKTAMEAMKKGNEEELKKLLKEGVEYIMGDNKVHGPEEIQKMVQLVLRVGMRIEFKELRVEGDTATTNVDYQVGDKKVTVQAHAELKGGRIDRVQIDFSDEAKKHVKHG` ?
Ans: bucket C

Q: In plain terms, what class is `DEEDLNKFAEHVVHALQEGNPDQLMHLADENVKMTVGDTSVEGKDQVSEYWTEMKERIDHFSYTSVDVRGNTIEIRFTADVDGRELRQVLIIEVRNGRAKSISIEDG` ?
Ans: bucket C
